Target: α1 receptors
Test Description: α1 binding affinity (procedure of Marrow et al)

Smiles Code	IC50
C[C@H](CN(C(=O)C1CCCCC1)c1ccccn1)N1CCN(c2cccc3c2OCCO3)CC1	625 nM
